Quick list: remaining at 12 h, 200 µM per entry.
test.summary: Stability in culture medium at 200 uM after 12 hrs by HPLC analysis (reference value: 100%)
Type: physicochemical
condition.set: read-out: Stability
Mention the unit after the number when you answer.

O=C1N[C@H]2[C@H](CS[C@H]2CCCCC(=O)Oc2ccc(-c3cc(=O)c4c(O)c(O)c(O)cc4o3)cc2)N1 | 50%

Could you now look at the following compound, please?
Recorded remaining at 12 h, 200 µM for O=C(CCCC[C@@H]1SC[C@@H]2NC(=O)N[C@@H]21)NCCOCCOCCNC(=O)COc1ccc(-c2cc(=O)c3c(O)c(O)c(O)cc3o2)cc1 , please?
54%

Source: ChEMBL document CHEMBL4177700
